meta.source: ChEMBL document CHEMBL3045504

Entries annotated with measured mortality
system: Coptotermes formosanus; test: Termiticidal activity against Coptotermes formosanus placed on 1 % wt/wt compound treated filter paper assessed as termite mortality measured 11 days post compound exposure; assay type: functional
Please give a number only; it is taken to be in %.

Reference set, count: 2
[
  {
    "compound": "CCCCCC1=CC(=O)C=C(OC)C1=O [Primin]",
    "measureUnit": "%",
    "recordedMeasurement": 100
  },
  {
    "compound": "COC1=C(OC)C(=O)C(C/C=C(\\C)CC/C=C(\\C)CC/C=C(\\C)CC/C=C(\\C)CC/C=C(\\C)CCC=C(C)C)=C(C)C1=O [Coenzyme Q6]",
    "measureUnit": "%",
    "recordedMeasurement": 6.7
  }
]

Notebook: CC1=CC(=O)C(C(C)C)=CC1=O [THYMOQUINONE] , mortality read as 100

Notebook: COc1ccccc1NC1=C(Cl)C(=O)C(Nc2ccccc2OC)=C(Cl)C1=O , mortality read as 0

Notebook: COC1=CC(=O)C(OC)=CC1=O , mortality read as 6.7

----------
Entries annotated with measured mortality
system: Coptotermes formosanus; test: Termiticidal activity against Coptotermes formosanus placed on 0.01 % wt/wt compound treated filter paper assessed as termite mortality measured 13 days post compound exposure; type: functional
Please give a number only; it is taken to be in %.

Reference set, count: 4
[
  {
    "molecule": "COC1=C(OC)C(=O)C(C)=C(C)C1=O [Aurantiogliocladin]",
    "mortality (%)": 0
  },
  {
    "molecule": "CC1=C(C)C(=O)C(Cl)=C(Cl)C1=O",
    "mortality (%)": 7.5
  },
  {
    "molecule": "CC1=CC(=O)C(C(C)C)=CC1=O",
    "mortality (%)": 5
  },
  {
    "molecule": "COC1=C(OC)C(=O)C(CC=C(C)C)=C(C)C1=O",
    "mortality (%)": 5
  }
]

Proceed to the following item.
Notebook: CCCCCC1=CC(=O)C=C(OC)C1=O , mortality read as 5

----------
tested on: Coptotermes formosanus; assay: Termiticidal activity against Coptotermes formosanus placed on 1 % wt/wt compound treated filter paper assessed as termite mortality measured 3 days post compound exposure; assay type: functional
Entries annotated with measured mortality
Please give a number only; it is taken to be in %.

Reference set, count: 6
[
  {
    "molecule": "COC1=C(OC)C(=O)C(C/C=C(\\C)CCC=C(C)C)=C(C)C1=O",
    "recordedMeasurement": 0
  },
  {
    "molecule": "COC1=CC(=O)C=C(OC)C1=O",
    "recordedMeasurement": 0
  },
  {
    "molecule": "CCCCCCCCCCCCCC1=C(O)C(=O)C=C(O)C1=O",
    "recordedMeasurement": 5
  },
  {
    "molecule": "O=C1C(Cl)=C(Nc2ccccc2)C(=O)C(Cl)=C1Nc1ccccc1",
    "recordedMeasurement": 0
  },
  {
    "molecule": "COc1ccc(NC2=C(Cl)C(=O)C(Nc3ccc(OC)cc3)=C(Cl)C2=O)cc1",
    "recordedMeasurement": 1.3
  },
  {
    "molecule": "COC1=C(OC)C(=O)C(C)=C(C)C1=O [Aurantiogliocladin]",
    "recordedMeasurement": 100
  }
]

Notebook: COC1=C(OC)C(=O)C(C/C=C(\C)CC/C=C(\C)CC/C=C(\C)CCC=C(C)C)=C(C)C1=O , mortality read as 1.7

Notebook: COc1cccc(NC2=C(Cl)C(=O)C(Nc3cccc(OC)c3)=C(Cl)C2=O)c1 , mortality read as 0

Notebook: COC1=C(OC)C(=O)C(C/C=C(\C)CC/C=C(\C)CC/C=C(\C)CC/C=C(\C)CC/C=C(\C)CC/C=C(\C)CC/C=C(\C)CC/C=C(\C)CCC=C(C)C)=C(C)C1=O , mortality read as 15

Notebook: COC1=CC(=O)C=CC1=O , mortality read as 13.3

----------
tested on: Coptotermes formosanus; assay: Termiticidal activity against Coptotermes formosanus placed on 0.1 % wt/wt compound treated filter paper assessed as termite mortality measured 6 days post compound exposure; assay type: functional
readout: mortality (%)
Please give a number only; it is taken to be in %.

Reference set, count: 4
[
  {
    "compound": "CC1=CC(=O)C(C(C)C)=CC1=O",
    "mortality (%)": 0
  },
  {
    "compound": "CC1=C(C)C(=O)C(Cl)=C(Cl)C1=O",
    "mortality (%)": 1.3
  },
  {
    "compound": "COC1=C(OC)C(=O)C(C)=C(C)C1=O [Aurantiogliocladin]",
    "mortality (%)": 0
  },
  {
    "compound": "COC1=C(OC)C(=O)C(CC=C(C)C)=C(C)C1=O",
    "mortality (%)": 0
  }
]

Proceed to the following item.
Notebook: CCCCCC1=CC(=O)C=C(OC)C1=O , mortality read as 21.7

----------
system: Coptotermes formosanus; assay: Termiticidal activity against Coptotermes formosanus placed on 1 % wt/wt compound treated filter paper assessed as termite mortality measured 3 days post compound exposure; assay type: functional
Entries annotated with measured mortality

[
  {
    "chemicalSmiles": "CC1=CC(=O)C=CC1=O",
    "mortality": "1.7%"
  },
  {
    "chemicalSmiles": "CNC1=C(Cl)C(=O)C(NC)=C(Cl)C1=O",
    "mortality": "8.8%"
  },
  {
    "chemicalSmiles": "COc1ccccc1NC1=C(Cl)C(=O)C(Nc2ccccc2OC)=C(Cl)C1=O",
    "mortality": "1.3%"
  },
  {
    "chemicalSmiles": "Cc1ccc(NC2=C(Cl)C(=O)C(Nc3ccc(C)cc3)=C(Cl)C2=O)cc1",
    "mortality": "6.3%"
  },
  {
    "chemicalSmiles": "CC1=CC(=O)C(C(C)C)=CC1=O",
    "mortality": "100%"
  },
  {
    "chemicalSmiles": "O=C1C(Cl)=C(Nc2ccc(Cl)cc2)C(=O)C(Cl)=C1Nc1ccc(Cl)cc1",
    "mortality": "10%"
  }
]

Proceed to the following item.
Readout mortality for COC1=CC(=O)C(c2ccccc2)=CC1=O , test system Coptotermes formosanus, was 3.3%

----------
test system: Coptotermes formosanus; assay: Termiticidal activity against Coptotermes formosanus placed on 0.5 % wt/wt compound treated filter paper assessed as termite mortality measured 11 days post compound exposure; type: functional
readout: mortality (%)
Please give a number only; it is taken to be in %.

Notebook: COC1=C(OC)C(=O)C(CC=C(C)C)=C(C)C1=O , mortality read as 3.3

Notebook: CC1=C(C)C(=O)C(Cl)=C(Cl)C1=O , mortality read as 100

Notebook: CCCCCC1=CC(=O)C=C(OC)C1=O , mortality read as 91.7

Notebook: COC1=C(OC)C(=O)C(C)=C(C)C1=O [Aurantiogliocladin] , mortality read as 0

----------
system: Coptotermes formosanus; test: Termiticidal activity against Coptotermes formosanus placed on 1 % wt/wt compound treated filter paper assessed as termite mortality measured 11 days post compound exposure; assay type: functional
readout: mortality (%)
Please give a number only; it is taken to be in %.

Readout mortality for COC1=C(OC)C(=O)C(C/C=C(\C)CCC=C(C)C)=C(C)C1=O , test system Coptotermes formosanus, was 15

Readout mortality for CNC1=C(Cl)C(=O)C(NC)=C(Cl)C1=O , test system Coptotermes formosanus, was 90

Readout mortality for COC1=C(OC)C(=O)C(C/C=C(\C)CC/C=C(\C)CC/C=C(\C)CC/C=C(\C)CC/C=C(\C)CC/C=C(\C)CC/C=C(\C)CC/C=C(\C)CC/C=C(\C)CCC=C(C)C)=C(C)C1=O , test system Coptotermes formosanus, was 10

Readout mortality for COC1=C(OC)C(=O)C(CC=C(C)C)=C(C)C1=O , test system Coptotermes formosanus, was 100

----------
system: Coptotermes formosanus; test: Termiticidal activity against Coptotermes formosanus placed on 1 % wt/wt compound treated filter paper assessed as termite mortality measured 3 days post compound exposure; type: functional
readout: mortality (%)
Please give a number only; it is taken to be in %.

Reference set, count: 2
[
  {
    "chemicalSmiles": "CC(C)(C)C1=CC(=O)C=CC1=O",
    "measuredOn": "Coptotermes formosanus",
    "measureUnit": "%",
    "recordedMeasurement": 13.3
  },
  {
    "chemicalSmiles": "COC1=C(Cl)C(=O)C(Cl)=C(OC)C1=O",
    "measuredOn": "Coptotermes formosanus",
    "measureUnit": "%",
    "recordedMeasurement": 0
  }
]

Notebook: COC1=CC(=O)C(OC)=CC1=O , mortality read as 3.3

----------
system: Coptotermes formosanus; experiment: Termiticidal activity against Coptotermes formosanus placed on 1 % wt/wt compound treated filter paper assessed as termite mortality measured 3 days post compound exposure; format: functional
Note to self: class labels come from recorded mortality, ranges listed here: low bracket (below 2%), middle bracket (2% to below 10%), high bracket (10% or more)

[
  {
    "chemicalSmiles": "COC1=C(OC)C(=O)C(CCCCCCCCCCO)=C(C)C1=O",
    "measuredOn": "Coptotermes formosanus",
    "classLabel": "low bracket"
  },
  {
    "chemicalSmiles": "COC1=CC(=O)C(C[P+](c2ccccc2)(c2ccccc2)c2ccccc2)=CC1=O.[Cl-]",
    "measuredOn": "Coptotermes formosanus",
    "classLabel": "high bracket"
  },
  {
    "chemicalSmiles": "COC1=C(OC)C(=O)C(C/C=C(\\C)CC/C=C(\\C)CC/C=C(\\C)CC/C=C(\\C)CC/C=C(\\C)CCC=C(C)C)=C(C)C1=O",
    "measuredOn": "Coptotermes formosanus",
    "classLabel": "low bracket"
  },
  {
    "chemicalSmiles": "CCCCCCCCCCC1=C(C)C(=O)C(OC)=C(OC)C1=O",
    "measuredOn": "Coptotermes formosanus",
    "classLabel": "high bracket"
  },
  {
    "chemicalSmiles": "CCCCCC1=CC(=O)C=C(OC)C1=O",
    "measuredOn": "Coptotermes formosanus",
    "classLabel": "high bracket"
  },
  {
    "chemicalSmiles": "COC1=C(OC)C(=O)C(CC=C(C)C)=C(C)C1=O",
    "measuredOn": "Coptotermes formosanus",
    "classLabel": "high bracket"
  }
]

Just checking, what class would you give COC1=C(OC)C(=O)C(C)=CC1=O here? high bracket

Just checking, what class would you give COC1=C(OC)C(=O)C(C/C=C(\C)CC/C=C(\C)CC/C=C(\C)CC/C=C(\C)CC/C=C(\C)CC/C=C(\C)CC/C=C(\C)CC/C=C(\C)CC/C=C(\C)CCC=C(C)C)=C(C)C1=O here? low bracket
